# Assay Remarks: GSH reactivity in phosphate buffer assessed as half life at 20 uM after 1 hr in presence of L-glutathione by LC-MS/MS analysis
# Format: physicochemical
# Assay Setup: phosphate buffer with L-glutathione
Property Name: half-life at 20 µM (h)

Reported half-life at 20 µM, compound N#CN[C@H]1C[C@H](O)c2ccc(-c3ncnc4[nH]ccc34)cc21 : ____ 0.667

Now try N#CN[C@H]1C[C@@H](NS(=O)(=O)c2cccc(F)c2)c2ccc(-c3ncnc4[nH]ccc34)cc21 . 1.33

(1) COCCc1c[nH]c2ncnc(-c3ccc4c(c3)C(NC#N)CCO4)c12 (stereo not given)
(2) N#CN[C@H]1C[C@@H](O)c2ccc(-c3ncnc4[nH]ccc34)cc21
// pick min by half-life at 20 µM: 1 , 2 Use the label to indicate which entry you chose. 2
(2: 0.467 h, 1: 1.17 h)
